# Tested on: IGROV1 ovarian
# method.description: NCI tumour cell line growth inhibition, 48 h; in the data active = GI50 below about 0.43 µM; inactive = the rest
Assign a class; possible classes are active, inactive

Illustrative cases are given below, each with its answer.
CCN(CC)c1ccc(/C=C/C=C(/C#N)C(N)=S)cc1 ... inactive
O=S(=O)(NCCO)c1cc[c]([Sb](=[O])([OH])[OH])cc1 ... inactive
Cc1cc(S(N)(=O)=O)c(S/C(=N\Nc2ccc([N+](=O)[O-])cc2)c2ccc3ccccc3c2)cc1Cl ... inactive
COC(=O)[C@@H](OC)[C@@H]1Cc2cc3cc(OC4CC(OC5CC(O)C(O)C(C)O5)C(O)C(C)O4)c(C)c(O)c3c(O)c2C(=O)[C@H]1OC1CC(OC2CC(OC3CC(C)(O)C(O)C(C)O3)C(O)C(C)O2)C(O)C(C)O1 (some centres not stated) ... active
CCCCCSC1C2C(=O)C(Br)=CC13CCNc1c(O)c4c5c(c13)=[N+]2CCC=5C=N4 (configuration not stated) ... inactive

Ask | So what was the verdict on COc1ccc2nccc(/C=C/c3ccnc4ccc(OC)cc34)c2c1 in this test?
Reply | inactive

Ask | I'd appreciate the recorded outcome for COc1ccc(C(=O)OC2C(OC3C(O)COC(O[C@H]4C[C@H]5[C@@H]6CC=C7C[C@@H](O)CC[C@]7(C)[C@H]6CC[C@]5(C)[C@H]4[C@H](C)C(=O)CCC(C)C)C3OC(C)=O)OCC(O)C2O)cc1 (some centres not stated) from this test.
Reply | active

Ask | // return assay outcome for CC(OC(=O)N(N(CCCl)S(C)(=O)=O)S(C)(=O)=O)c1ccc([N+](=O)[O-])cc1 (configuration not stated)
Reply | inactive

Ask | Check the results log: what was the call for CC(=O)/C(=C\c1c(-c2ccccc2)[nH]c2ccccc12)S(=O)(=O)c1ccccc1 ?
Reply | inactive

Ask | Fill in: this test's call for COc1ccc2[nH]c(O)c(/C=c3/ccc4c(c3)N=C(c3ccc(F)cc3)N=4)c2c1 is ___
Reply | inactive

Ask | Fill in: this test's call for CCN(CC)CCCNc1[nH]ncc2c(C)c3nc4ccccc4c3cc12 is ___
Reply | inactive

Ask | Which outcome was entered for the compound CN(C)c1ccc(/C=N/NC(=O)c2cccc3ccccc23)c(Cl)c1 in this test?
Reply | inactive

Ask | Dear colleague, could you share the recorded outcome for Oc1c(CNCCNCc2cc(Cl)cc(Cc3ccccc3)c2O)cc(Cl)cc1Cc1ccccc1 when you have a moment?
Reply | inactive

Ask | What call does the record list for CCOC(=O)c1nc2cc(C(F)(F)F)ccc2[n+]([O-])c1C ?
Reply | inactive

Ask | In this assay, the call recorded for COc1cc(NC(C)CCCN)c2ncccc2c1Sc1ccc(Cl)cc1 (configuration not stated) was what?
Reply | inactive

Ask | Outcome logged for COC(=O)/C(=C\c1c(-c2ccccc2)[nH]c2ccccc12)S(C)(=O)=O in this assay:
Reply | inactive

Ask | Just curious, what result did COc1ccc(C#CC2=C(c3cc(OC)c(OC)c(OC)c3)C(=O)OC2)cc1 get here?
Reply | inactive

* * *

# System: NCI-H226 lung
# method.description: NCI tumour cell line growth inhibition, 48 h
reported.endpoint: TGI (µM)
Provide the reading as a plain figure in µM.

Brc1ccc(C2SCc3nc4ccccc4n32)cc1 (stereo not given) ... 34.1
CN1CCN(c2ccc(C(=O)Nc3cccc(C#Cc4cccc5[nH]nc(N)c45)c3)cc2C(F)(F)F)CC1 ... 6.94

Now turn to the next compound.
Memo: Cc1cc(S(N)(=O)=O)c(S/C(=N\Nc2ccc([N+](=O)[O-])cc2)c2ccc3ccccc3c2)cc1Cl , reported TGI: 38.3

* * *

Collected TGI values appear next to each entry.
# Test system: SK-MEL-5 melanoma
# method.description: NCI tumour cell line growth inhibition, 48 h

Cc1nc2cccc([N+](=O)[O-])c2n1CCCN(C)C ... > 100 µM

GET /values?item= CSc1ccc2c(cc1=O)[C@@H](NC(=O)c1ccc([N+](=O)[O-])cc1)CCc1cc(O)c(O)c(O)c1-2 &system= SK-MEL-5 melanoma returns TGI: 53.1 µM

Form field, TGI with SK-MEL-5 melanoma, item Cc1nn(-c2ccccc2)c2nc3ccc(Cl)cc3c(-c3ccccc3)c12 : > 100 µM

Kindly note: SK-MEL-5 melanoma, N#C/C(=C\c1cccc2cnccc12)N1N=NC2C=CC=CC21 (stereo not given) , TGI value reported: > 100 µM

The molecule NC(=O)CNC(=O)[C@@H]1C[C@@H](OCCC(=O)O)CN1C(=O)OCc1ccccc1 on SK-MEL-5 melanoma: TGI was > 100 µM

* * *

A collection of compounds and their measured TGI
# Test system: KM12 colon
# method.description: NCI tumour cell line growth inhibition, 48 h
Where a SMILES comes first, the peptide text is derived from it. The star is where a group is joined. Cbz = O=C(OCc1ccccc1)*

CCN(CC)CCC(=O)/C=C/c1ccc(C)cc1 ... 7.98 µM

According to the records, this compound CC1(C)N=C(N)N=C(N)N1c1ccc(Cl)c(Cl)c1 displays TGI of > 100 µM

So, CCCCCCCCCCCCCCCCOc1ccc(/C=C/C2=[N+](CCCl)CCO2)cc1 ? Its TGI was > 100 µM

Note to self: TGI recorded for COc1ccc2nccc(/C=C/c3ccnc4ccc(OC)cc34)c2c1 was > 100 µM

Form field TGI, entry CCOC(=O)CNC(=O)C(C)NC(=O)C(NC(=O)OCc1ccccc1)C(C)C (stereo not drawn) (Cbz-Val-Ala-Gly-OEt; configuration not given here) : > 100 µM

Looking up O=[N+]([O-])c1ccc(O)c(C=NCC2CCCN3CCCCC23)c1 (stereo unspecified) , I see its TGI listed as > 100 µM

* * *

# Test system: MDA-MB-435
Your reply should match one of these outcome classes. True for active, False for inactive

Example entries and their recorded answers appear below.
CCCCCSC1C2C(=O)C(Br)=CC13CCNc1c(O)c4c5c(c13)=[N+]2CCC=5C=N4 (stereo unspecified) ... True
Oc1c(CNCCNCc2cc(Cl)cc(Cc3ccccc3)c2O)cc(Cl)cc1Cc1ccccc1 ... False
CCN1C(=O)N(CC)C2C1NN=c1s/c(=C\c3cccc([N+](=O)[O-])c3)c(=O)n12 (stereo unspecified) ... True

Ask | # fetch the recorded call for CCN(Cc1cccc(F)c1F)c1ccc(CO)c(Cl)c1 here
Reply | False

Ask | Could you check what this test reported for CN1CCN(c2ccc(C(=O)Nc3cccc(C#Cc4cccc5[nH]nc(N)c45)c3)cc2C(F)(F)F)CC1 ?
Reply | False

Ask | Record lookup: outcome of this test for Cc1ccc(C(=O)N=Nc2c(O)[nH]c3ccc(Cl)cc23)cc1 ?
Reply | False

Ask | Please state the recorded outcome for this molecule: CN(C)c1ccc(C(=C2C=CC(=[N+](C)C)C=C2)c2ccccc2Cl)cc1
Reply | True

Ask | Test call for this molecule, please: CNCCCn1c2c(c3ccc(F)cc3c1=O)C(=O)c1cc(OC)cnc1-2
Reply | False

Ask | What did this assay record as the result for CC(=O)/C(=C\c1c(-c2ccccc2)[nH]c2ccccc12)S(=O)(=O)c1ccccc1 ?
Reply | True

Ask | Could you please tell me the result logged for O=Nc1c(O)c2ccccc2c2ccccc12 in this assay?
Reply | True

Ask | // param item: COC(=O)[C@@H](OC)[C@@H]1Cc2cc3cc(OC4CC(OC5CC(O)C(O)C(C)O5)C(O)C(C)O4)c(C)c(O)c3c(O)c2C(=O)[C@H]1OC1CC(OC2CC(OC3CC(C)(O)C(O)C(C)O3)C(O)C(C)O2)C(O)C(C)O1 (stereo partly specified) ; yields the recorded call
Reply | True

* * *

# Tested on: OVCAR-4 ovarian
# method.description: NCI tumour cell line growth inhibition, 48 h
Below, each of the compounds is paired with its reported TGI value.

Cc1cc2c(C(C)C)c(O)c(O)c(C=Nc3ccccc3)c2c(O)c1-c1c(C)cc2c(C(C)C)c(O)c(O)c(C=Nc3ccccc3)c2c1O ... > 100 µM

Then this compound:
Entry under test: CNc1nc2c(C)ccc3[nH]c(N(C)C)nc3c-2n1 . Its TGI was 80.9 µM

* * *

In this section we review reported TGI values for a set of molecules.
# Tested on: SF-268 CNS
# method.description: NCI tumour cell line growth inhibition, 48 h

Illustrative cases are given below, each with its answer.
CCCC#CCOC(=O)c1cc([N+](=O)[O-])cc([N+](=O)[O-])c1 ... > 100 µM
Cc1nc2cccc([N+](=O)[O-])c2n1CCCN(C)C ... > 100 µM
NC(=S)N/N=C1\CCCCC1C(O)(C(F)(F)Cl)C(F)(F)Cl (stereo unspecified) ... > 10 µM
CCN(CC)c1ccc(/C=C/C=C(/C#N)C(N)=S)cc1 ... > 100 µM
N#CCCN(CCC#N)c1ccc(C(N=Nc2ccc(Cl)cc2)=Nc2ccc(Cl)cc2)cc1 ... 33.4 µM
C/C(=C1\C(=O)C(c2ccccc2)N(c2ccccc2)C1=O)c1ccc(Cl)cc1 (stereo unspecified) ... 47 µM
Clc1ccc(N2CCC(N3CCCC3)CC2)cc1-c1nc2ccccc2[nH]1 ... 31.8 µM
Cc1cc(NS(=O)(=O)c2ccc(Nc3c4ccccc4nc4c(C(=O)Nc5ccc(S(=O)(=O)N=C(N)N)cc5)ccc(Cl)c34)cc2)no1 ... 63.2 µM
Nc1ccc(OCCCc2c(-c3ccccc3)nc(N)[nH]c2=O)cc1 ... > 100 µM
Cc1nn(-c2ccccc2)c2nc3ccc(Cl)cc3c(-c3ccccc3)c12 ... > 100 µM

Lab note: COc1ccc(/C=C(/c2ccccc2)c2c(C)cc(C)c(/C(=C\c3ccc(OC)cc3)c3ccccc3)c2N=Nc2cc(C)cc(C)c2)cc1 gave TGI of > 100 µM

Lookup result for CCOC(=O)c1nc2cc(C(F)(F)F)ccc2[n+]([O-])c1C ; measured TGI: > 100 µM

Entry under test: COc1ccc(/C=C2\CN(C)CC3C2=NN(c2ccccc2)C3c2ccc(OC)cc2)cc1 (stereo unspecified) . Its TGI was > 100 µM

Briefly, TGI measured for Cc1cc(=O)c2ccccc2n1CCCCCCCCCCn1c(C)cc(=O)c2ccccc21 : 89.4 µM

The molecule identified as O=[N+]([O-])c1ccc(COc2cccc3cccnc23)cc1 registered its TGI at 68.7 µM

Per the record, Cc1ccc(NC(=O)/C(=N\NC(N)=O)c2c(O)c3ccccc3[nH]c2=O)cc1 has TGI of > 100 µM
